Where these numbers come from: ChEMBL document CHEMBL3885861

A collection of compounds and their measured A/G
Species on record: Rattus norvegicus
Assay: Open TG-GATES - Regimen: Single
Format: toxicity, organism-based, Sprague-Dawley
Set-up: regimen Single, gender Male, age 6 weeks
Conditions: in vivo, po, 0 mg/kg, 24 h, tissue Plasma, route gavage, dose level Control

>>> observed_result("Clc1c(Cl)c(Cl)c(Cl)c(Cl)c1Cl")
1.6

Query string: Report A/G for CCOC(=O)[C@H](CCc1ccccc1)N[C@@H](C)C(=O)N1CCC[C@H]1C(=O)O
Result string: 2.4

Query string: Report A/G for Cc1cccc(Nc2ccccc2C(=O)O)c1C
Result string: 1.5

###

Species on record: Rattus norvegicus
Assay: Open TG-GATES - Regimen: Single
Assay type: toxicity, organism-based, Sprague-Dawley
Design: regimen Single, gender Male, age 6 weeks
Conditions: in vivo, po, 0 mg/kg, 3 h, tissue Plasma, route gavage, dose level Control
A collection of compounds and their measured Na
The answer is to be given in meq/L; state only the numeric part.

Use the examples below as a reference point.
>>> observed_result("Cc1cccc(Nc2ccccc2C(=O)O)c1C")
140.8
>>> observed_result("CN(C)[C@@H]1C(O)=C(C(N)=O)C(=O)[C@@]2(O)C(O)=C3C(=O)c4c(O)cccc4[C@@](C)(O)[C@H]3C[C@@H]12")
137.6
>>> observed_result("COc1cc([C@@H]2c3cc4c(cc3[C@@H](O[C@@H]3O[C@@H]5CO[C@@H](C)O[C@H]5[C@H](O)[C@H]3O)[C@H]3COC(=O)[C@H]23)OCO4)cc(OC)c1O [ETOPOSIDE]")
141.6
>>> observed_result("CC(=O)Nc1nnc(S(N)(=O)=O)s1 [ACETAZOLAMIDE]")
143

Query string: Report Na for CN1C(C(=O)Nc2ccccn2)=C(O)c2sc(Cl)cc2S1(=O)=O
Result string: 141.4

###

Organism: Rattus norvegicus
Test: Open TG-GATES - Regimen: Single
Assay type: toxicity, organism-based, Sprague-Dawley
Design: regimen Single, gender Male, age 6 weeks
Details: in vivo, po, 0 mg/kg, 24 h, tissue Plasma, route gavage, dose level Control
A collection of compounds and their measured Ca

Use the examples below as a reference point.
>>> observed_result("CCOC(=O)[C@H](CCc1ccccc1)N[C@@H](C)C(=O)N1CCC[C@H]1C(=O)O")
"10.9 mg/dL"
>>> observed_result("CC(CN1c2ccccc2Sc2ccccc21)N(C)C (stereo unspecified)")
"11 mg/dL"
>>> observed_result("C1CCC(C(CC2CCCCN2)C2CCCCC2)CC1 (stereo unspecified)")
"11 mg/dL"
>>> observed_result("Clc1c(Cl)c(Cl)c(Cl)c(Cl)c1Cl")
"10.9 mg/dL"
>>> observed_result("O=[N+]([O-])c1ccc2c(c1)Cc1ccccc1-2")
"10.7 mg/dL"

Kindly review the next compound as well.
Query string: Report Ca for CN(C)[C@@H]1C(O)=C(C(N)=O)C(=O)[C@@]2(O)C(O)=C3C(=O)c4c(O)cccc4[C@@](C)(O)[C@H]3C[C@@H]12
Result string: 11.1 mg/dL

###

A collection of molecules and their measured Ht
Species: Rattus norvegicus
Assay: Open TG-GATES - Regimen: Single
Type: toxicity, organism-based, Sprague-Dawley
Parameters: regimen Single, gender Male, age 6 weeks
Details: in vivo, po, 0 mg/kg, 3 h, tissue Blood, route gavage, dose level Control
The answer is to be given in %; state only the numeric part.

>>> observed_result("CN1C(C(=O)Nc2ccccn2)=C(O)c2sc(Cl)cc2S1(=O)=O")
39.7

Query string: Report Ht for Cc1cccc(Nc2ccccc2C(=O)O)c1C
Result string: 37.1

Query string: Report Ht for CN(C)[C@@H]1C(O)=C(C(N)=O)C(=O)[C@@]2(O)C(O)=C3C(=O)c4c(O)cccc4[C@@](C)(O)[C@H]3C[C@@H]12
Result string: 39.4

Query string: Report Ht for CC(CN1c2ccccc2Sc2ccccc21)N(C)C (stereo not given)
Result string: 39.9

Query string: Report Ht for C1CCC(C(CC2CCCCN2)C2CCCCC2)CC1 (stereo not given)
Result string: 39.5

Query string: Report Ht for Clc1c(Cl)c(Cl)c(Cl)c(Cl)c1Cl
Result string: 38.6

Query string: Report Ht for C#C[C@]1(O)CC[C@H]2[C@@H]3CCC4=Cc5oncc5C[C@]4(C)[C@H]3CC[C@@]21C
Result string: 40

Query string: Report Ht for COc1cc([C@@H]2c3cc4c(cc3[C@@H](O[C@@H]3O[C@@H]5CO[C@@H](C)O[C@H]5[C@H](O)[C@H]3O)[C@H]3COC(=O)[C@H]23)OCO4)cc(OC)c1O [ETOPOSIDE]
Result string: 39.3

Query string: Report Ht for CCOC(=O)[C@H](CCc1ccccc1)N[C@@H](C)C(=O)N1CCC[C@H]1C(=O)O
Result string: 39.6

Query string: Report Ht for CC(=O)Nc1nnc(S(N)(=O)=O)s1 [ACETAZOLAMIDE]
Result string: 39.4

###

Organism: Rattus norvegicus
Assay: Open TG-GATES - Regimen: Single
Assay type: toxicity, organism-based, Sprague-Dawley
Set-up: regimen Single, gender Male, age 6 weeks
Details: in vivo, po, 0 mg/kg, 3 h, tissue Kidney, route gavage, dose level Control
ENDPOINT: KIDNEY_L (g)
The answer is to be given in g; state only the numeric part.

Use the examples below as a reference point.
>>> observed_result("CC(=O)Nc1nnc(S(N)(=O)=O)s1 [ACETAZOLAMIDE]")
0.9
>>> observed_result("CN1C(C(=O)Nc2ccccn2)=C(O)c2sc(Cl)cc2S1(=O)=O [LORNOXICAM]")
1
>>> observed_result("CN(C)[C@@H]1C(O)=C(C(N)=O)C(=O)[C@@]2(O)C(O)=C3C(=O)c4c(O)cccc4[C@@](C)(O)[C@H]3C[C@@H]12 [TETRACYCLINE]")
0.9
>>> observed_result("COc1cc([C@@H]2c3cc4c(cc3[C@@H](O[C@@H]3O[C@@H]5CO[C@@H](C)O[C@H]5[C@H](O)[C@H]3O)[C@H]3COC(=O)[C@H]23)OCO4)cc(OC)c1O [ETOPOSIDE]")
1
>>> observed_result("C#C[C@]1(O)CC[C@H]2[C@@H]3CCC4=Cc5oncc5C[C@]4(C)[C@H]3CC[C@@]21C [DANAZOL]")
0.9
>>> observed_result("Cc1cccc(Nc2ccccc2C(=O)O)c1C [MEFENAMIC ACID]")
1
>>> observed_result("CC(CN1c2ccccc2Sc2ccccc21)N(C)C (stereo not given) [PROMETHAZINE]")
0.9
>>> observed_result("Clc1c(Cl)c(Cl)c(Cl)c(Cl)c1Cl [PERCHLOROBENZENE]")
1
>>> observed_result("CCOC(=O)[C@H](CCc1ccccc1)N[C@@H](C)C(=O)N1CCC[C@H]1C(=O)O")
1

Kindly review the next compound as well.
Query string: Report KIDNEY_L for C1CCC(C(CC2CCCCN2)C2CCCCC2)CC1 (stereo not given) [PERHEXILINE]
Result string: 0.9

###

Organism: Rattus norvegicus
Assay: Open TG-GATES - Regimen: Single
Format: toxicity, organism-based, Sprague-Dawley
Set-up: regimen Single, gender Male, age 6 weeks
Details: in vivo, po, 0 mg/kg, 9 h, tissue Blood, route gavage, dose level Control
ENDPOINT: WBC (x10_2/uL)
The answer is to be given in x10_2/uL; state only the numeric part.

Query string: Report WBC for Cc1cccc(Nc2ccccc2C(=O)O)c1C [MEFENAMIC ACID]
Result string: 75.3

Query string: Report WBC for CN1C(C(=O)Nc2ccccn2)=C(O)c2sc(Cl)cc2S1(=O)=O [LORNOXICAM]
Result string: 126.9

Query string: Report WBC for CC(=O)Nc1nnc(S(N)(=O)=O)s1 [ACETAZOLAMIDE]
Result string: 84.8

Query string: Report WBC for C1CCC(C(CC2CCCCN2)C2CCCCC2)CC1 (stereo not given) [PERHEXILINE]
Result string: 89.6

Query string: Report WBC for C#C[C@]1(O)CC[C@H]2[C@@H]3CCC4=Cc5oncc5C[C@]4(C)[C@H]3CC[C@@]21C [DANAZOL]
Result string: 87.3

Query string: Report WBC for CCOC(=O)[C@H](CCc1ccccc1)N[C@@H](C)C(=O)N1CCC[C@H]1C(=O)O
Result string: 113.3

Query string: Report WBC for CN(C)[C@@H]1C(O)=C(C(N)=O)C(=O)[C@@]2(O)C(O)=C3C(=O)c4c(O)cccc4[C@@](C)(O)[C@H]3C[C@@H]12 [TETRACYCLINE]
Result string: 72

Query string: Report WBC for COc1cc([C@@H]2c3cc4c(cc3[C@@H](O[C@@H]3O[C@@H]5CO[C@@H](C)O[C@H]5[C@H](O)[C@H]3O)[C@H]3COC(=O)[C@H]23)OCO4)cc(OC)c1O [ETOPOSIDE]
Result string: 71.2

Query string: Report WBC for CC(CN1c2ccccc2Sc2ccccc21)N(C)C (stereo not given) [PROMETHAZINE]
Result string: 107.3

Query string: Report WBC for Clc1c(Cl)c(Cl)c(Cl)c(Cl)c1Cl [PERCHLOROBENZENE]
Result string: 90.9
